study.target: human EDG1 (S1PR1) receptor (Homo sapiens, UniProt P21453)
Sequence (P21453 whole entry): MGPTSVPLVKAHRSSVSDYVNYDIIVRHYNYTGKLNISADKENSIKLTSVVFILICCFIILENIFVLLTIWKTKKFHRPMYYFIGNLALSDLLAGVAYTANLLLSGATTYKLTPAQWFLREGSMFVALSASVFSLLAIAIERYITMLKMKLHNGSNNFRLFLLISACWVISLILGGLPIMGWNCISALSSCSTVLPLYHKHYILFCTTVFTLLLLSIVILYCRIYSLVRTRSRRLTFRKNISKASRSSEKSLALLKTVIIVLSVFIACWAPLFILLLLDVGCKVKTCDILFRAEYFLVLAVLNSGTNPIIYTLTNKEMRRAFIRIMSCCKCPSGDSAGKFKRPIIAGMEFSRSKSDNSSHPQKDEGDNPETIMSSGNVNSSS
protocol.summary: Aequorin assay, agonist potency, CHO-A21-Edg1#17 cells
measurement.conditions: agonist mode, aequorin luminescence; read-out: S1P1 EC50
Procedure: Agonistic activity was measured as described below. […] 18 hours prior to the test, vials of frozen cells are quickly thawed in a 37° C. water bath, cells are recovered by centrifugation and resuspended in assay buffer (DMEM/HAM's F12 with HEPES, without phenol red+0.1% fatty acid-free BSA). […] Cells are then placed in the luminescence reader (Hamamatsu Functional Drug Screening System 6000, FDSS6000). […] The resulting emission of light is recorded for 90 seconds using the FDSS6000. […]
endpoint: EC50

Data request: Record lookup: for human EDG1 (S1PR1) receptor (Homo sapiens, UniProt P21453), what EC50 belongs to O=C(O)CN1CC2(Cc3ccc(OCc4ccccc4C4CC4)cc3C2)C1 [Example 111] ?
Data returned: > 1000 nM

Data request: Record lookup: for human EDG1 (S1PR1) receptor (Homo sapiens, UniProt P21453), what EC50 belongs to O=C(O)CN1CC2(Cc3ccc(OCc4cccc5c4CCC5)cc3C2)C1 [Example 74] ?
Data returned: > 1000 nM

Data request: Record lookup: for human EDG1 (S1PR1) receptor (Homo sapiens, UniProt P21453), what EC50 belongs to O=C(O)C1CC(N2CC3(Cc4ccc(OCc5cccc6c5CCC6)cc4C3)C2)C1 (centres unmarked) [Example 83] ?
Data returned: > 1000 nM

Data request: Record lookup: for human EDG1 (S1PR1) receptor (Homo sapiens, UniProt P21453), what EC50 belongs to COc1ccc(COc2ccc3c(c2)CC2(C3)CN(C3CC(C(=O)O)C3)C2)c(C)n1 (centres unmarked) [Example 88] ?
Data returned: > 1000 nM

Data request: Record lookup: for human EDG1 (S1PR1) receptor (Homo sapiens, UniProt P21453), what EC50 belongs to O=C(O)C1(CN2CC3(Cc4ccc(OCCc5ccccc5C(F)(F)F)cc4C3)C2)CC1 [Example 56] ?
Data returned: > 1000 nM

Data request: Record lookup: for human EDG1 (S1PR1) receptor (Homo sapiens, UniProt P21453), what EC50 belongs to CCOc1ccc(COc2ccc3c(c2)CC2(C3)CN(CC3(C(=O)O)CC3)C2)c(F)c1F [Example 123] ?
Data returned: > 1000 nM

Data request: Record lookup: for human EDG1 (S1PR1) receptor (Homo sapiens, UniProt P21453), what EC50 belongs to CC(C)Oc1ccc(C#Cc2ccc3c(c2)CC2(C3)CN(CC3(C(=O)O)CC3)C2)cn1 [Example 114] ?
Data returned: > 1000 nM

Data request: Record lookup: for human EDG1 (S1PR1) receptor (Homo sapiens, UniProt P21453), what EC50 belongs to CCc1cccc(Cl)c1COc1ccc2c(c1)CC1(C2)CN(CC(=O)O)C1 [Example 24] ?
Data returned: > 1000 nM

Data request: Record lookup: for human EDG1 (S1PR1) receptor (Homo sapiens, UniProt P21453), what EC50 belongs to O=C(O)C1(CN2CC3(Cc4ccc(OCCc5c[nH]c6ccccc56)cc4C3)C2)CC1 [Example 144] ?
Data returned: > 1000 nM

Data request: Record lookup: for human EDG1 (S1PR1) receptor (Homo sapiens, UniProt P21453), what EC50 belongs to O=C(O)CN1CC2(Cc3ccc(OCc4ccc(Cl)cc4)cc3C2)C1 [Example 11] ?
Data returned: > 1000 nM

Data request: Record lookup: for human EDG1 (S1PR1) receptor (Homo sapiens, UniProt P21453), what EC50 belongs to O=C(O)C1(CN2CC3(Cc4ccc(OCc5ccc6c(c5)OCO6)cc4C3)C2)CC1 [Example 143] ?
Data returned: > 1000 nM

Data request: Record lookup: for human EDG1 (S1PR1) receptor (Homo sapiens, UniProt P21453), what EC50 belongs to O=C(O)C1(CN2CC3(Cc4ccc(OCc5c(F)cccc5C(F)(F)F)cc4C3)C2)CC1 [Example 49] ?
Data returned: > 1000 nM

Data request: Record lookup: for human EDG1 (S1PR1) receptor (Homo sapiens, UniProt P21453), what EC50 belongs to O=C(O)C1CC(N2CC3(Cc4ccc(OC5CCc6ccccc65)cc4C3)C2)C1 (centres unmarked) [Example 104] ?
Data returned: > 1000 nM

Data request: Record lookup: for human EDG1 (S1PR1) receptor (Homo sapiens, UniProt P21453), what EC50 belongs to COc1ccc(CCOc2ccc3c(c2)CC2(C3)CN(CC3(C(=O)O)CC3)C2)cc1 [Example 135] ?
Data returned: > 1000 nM

Data request: Record lookup: for human EDG1 (S1PR1) receptor (Homo sapiens, UniProt P21453), what EC50 belongs to O=C(O)C1CC(N2CC3(Cc4ccc(OC5CCc6cccc(Cl)c65)cc4C3)C2)C1 (centres unmarked) [Example 106] ?
Data returned: < 1000 nM

Data request: Record lookup: for human EDG1 (S1PR1) receptor (Homo sapiens, UniProt P21453), what EC50 belongs to O=C(O)CN1CC2(Cc3ccc(OCc4ccccc4)cc3C2)C1 [Example 8] ?
Data returned: > 1000 nM

Data request: Record lookup: for human EDG1 (S1PR1) receptor (Homo sapiens, UniProt P21453), what EC50 belongs to O=C(O)C1CC(N2CC3(Cc4ccc(OCc5c(Cl)cccc5C5CC5)cc4C3)C2)C1 (centres unmarked) [Example 91] ?
Data returned: < 1000 nM
